# Tested on: MCF7
# Experiment Summary: Cytotoxicity against human MCF7 cells after 3 days by resazurin microplate assay
# Type: functional, cell-based
# Experimental Context: Homo sapiens, MCF7, 72 h; read-out: IC50
Attribute Measured: IC50
Numeric answer plus unit only.

Known results for compounds:
1) CC(C)(CNC(=O)c1ccccc1O)CC1=C(O)C(=O)c2ccccc2C1=O: 28.1 µM
2) COC1=C(CC(C)(C)CNC(=O)c2ccc3ccccc3c2OC)C(=O)c2ccccc2C1=O: 95.7 µM

Please look up its IC50: CC(C)(CNC(=O)c1ccccc1)CC1=C(O)C(=O)c2ccccc2C1=O
37.1 µM

Please look up its IC50: COC1=C(CC(C)(C)CNC(=O)c2ccc3ccccc3c2)C(=O)c2ccccc2C1=O
52.5 µM

Please look up its IC50: COc1ccccc1C(=O)NCC(C)(C)CC1=C(O)C(=O)c2ccccc2C1=O
111 µM

Please look up its IC50: CC(C)(CNC(=O)c1ccc2ccccc2c1O)CC1=C(O)C(=O)c2ccccc2C1=O
79.5 µM

Please look up its IC50: COC1=C(CC(C)(C)CNC(=O)c2ccccc2)C(=O)c2ccccc2C1=O
61.8 µM

Please look up its IC50: COc1ccc(OC)c(C(=O)NCC(C)(C)CC2=C(O)C(=O)c3ccccc3C2=O)c1
99.4 µM

Please look up its IC50: COC1=C(CC(C)(C)CNC(=O)c2ccccc2OC)C(=O)c2ccccc2C1=O
70.7 µM

Please look up its IC50: CC(C)(CNC(=O)c1ccc2ccccc2c1)CC1=C(O)C(=O)c2ccccc2C1=O
28.2 µM

###

# Test system: NCI-H187
# Experiment Summary: Cytotoxicity against human NCI-H187 cells after 5 days by resazurin microplate assay
# Assay type: functional, cell-based
# Experimental Context: NCI-H187, 120 h
Attribute Measured: pIC50
Here pIC50 is given on a logarithmic scale as minus log10 of the concentration in mol/L.

Please look up its pIC50: COC1=C(CC(C)(C)CNC(=O)c2ccc3ccccc3c2OC)C(=O)c2ccccc2C1=O
4.27

Please look up its pIC50: COc1cc(C(=O)NCC(C)(C)CC2=C(O)C(=O)c3ccccc3C2=O)c(O)c2ccccc12
4.58

Please look up its pIC50: COC1=C(CC(C)(C)CNC(=O)c2ccccc2OC)C(=O)c2ccccc2C1=O
4.46

Please look up its pIC50: COc1cccc2c1C(=O)c1c(O)c3c(c(O)c1C2=O)C[C@@](O)(C(=O)CO)C[C@@H]3O[C@H]1C[C@H](N)[C@H](O)[C@H](C)O1 [DOXORUBICIN]
6.80

Please look up its pIC50: COC1=C(CC(C)(C)CNC(=O)c2cc(OC)c3ccccc3c2OC)C(=O)c2ccccc2C1=O
4.71

Please look up its pIC50: COc1c(C(=O)NCC(C)(C)CC2=C(O)C(=O)c3ccccc3C2=O)ccc2ccccc12
4.43

###

# Subject Of Test: UniProt P11388
# Sequence (P11388 whole entry): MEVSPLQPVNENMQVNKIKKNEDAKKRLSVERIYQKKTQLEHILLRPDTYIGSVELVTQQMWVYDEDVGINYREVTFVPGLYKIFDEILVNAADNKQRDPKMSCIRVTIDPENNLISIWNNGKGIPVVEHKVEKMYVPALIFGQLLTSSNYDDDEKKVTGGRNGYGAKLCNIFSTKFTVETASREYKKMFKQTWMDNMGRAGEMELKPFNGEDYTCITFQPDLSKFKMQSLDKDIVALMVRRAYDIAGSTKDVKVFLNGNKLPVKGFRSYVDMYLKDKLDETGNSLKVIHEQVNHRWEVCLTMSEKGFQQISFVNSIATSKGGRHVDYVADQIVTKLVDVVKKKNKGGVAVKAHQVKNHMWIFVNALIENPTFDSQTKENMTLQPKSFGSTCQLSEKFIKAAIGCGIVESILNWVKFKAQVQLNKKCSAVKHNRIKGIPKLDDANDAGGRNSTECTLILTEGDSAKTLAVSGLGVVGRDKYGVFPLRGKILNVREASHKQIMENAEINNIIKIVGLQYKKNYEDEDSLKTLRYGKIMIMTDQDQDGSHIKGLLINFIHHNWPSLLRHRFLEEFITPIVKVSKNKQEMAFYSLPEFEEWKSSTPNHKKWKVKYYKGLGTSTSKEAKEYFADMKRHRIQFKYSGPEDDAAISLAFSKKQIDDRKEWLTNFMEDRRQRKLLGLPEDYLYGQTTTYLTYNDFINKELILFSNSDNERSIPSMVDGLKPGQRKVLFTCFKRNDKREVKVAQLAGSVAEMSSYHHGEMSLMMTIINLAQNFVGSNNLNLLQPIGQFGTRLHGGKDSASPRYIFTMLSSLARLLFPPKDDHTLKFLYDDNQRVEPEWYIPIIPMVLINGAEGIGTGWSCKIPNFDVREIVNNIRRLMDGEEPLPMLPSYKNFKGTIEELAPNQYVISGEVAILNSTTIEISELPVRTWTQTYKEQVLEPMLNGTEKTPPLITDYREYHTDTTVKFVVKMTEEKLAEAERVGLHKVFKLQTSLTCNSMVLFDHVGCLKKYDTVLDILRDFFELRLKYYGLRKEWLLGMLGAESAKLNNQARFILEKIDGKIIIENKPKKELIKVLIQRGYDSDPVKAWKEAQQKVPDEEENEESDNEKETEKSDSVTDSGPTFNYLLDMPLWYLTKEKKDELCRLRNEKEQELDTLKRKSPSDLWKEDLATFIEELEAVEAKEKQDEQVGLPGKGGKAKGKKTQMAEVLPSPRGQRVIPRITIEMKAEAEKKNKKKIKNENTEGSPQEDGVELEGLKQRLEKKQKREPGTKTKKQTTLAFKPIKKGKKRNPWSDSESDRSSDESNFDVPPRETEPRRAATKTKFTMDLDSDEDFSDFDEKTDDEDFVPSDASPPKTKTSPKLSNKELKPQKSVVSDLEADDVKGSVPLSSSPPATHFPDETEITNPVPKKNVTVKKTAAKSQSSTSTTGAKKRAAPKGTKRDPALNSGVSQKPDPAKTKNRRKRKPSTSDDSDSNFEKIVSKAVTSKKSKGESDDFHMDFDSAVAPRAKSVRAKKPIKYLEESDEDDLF
# Experiment Summary: Inhibition of human topoisomerase 2alpha-mediated decatenation of kinetoplast DNA at 10 uM after 1 hr using ethidium bromide by agarose gel electrophoresis analysis relative to doxorubicin
Calls of active or inactive are those of the source. The rule behind the calls is not given here.
Attribute Measured: inhibition

Known results for compounds:
1) CC(C)(CNC(=O)c1ccccc1O)CC1=C(O)C(=O)c2ccccc2C1=O: inactive
2) CC(C)(CNC(=O)c1ccc2ccccc2c1O)CC1=C(O)C(=O)c2ccccc2C1=O: inactive
3) COc1cc(C(=O)NCC(C)(C)CC2=C(O)C(=O)c3ccccc3C2=O)c(OC)c2ccccc12: inactive
4) CC(C)(CNC(=O)c1ccc2ccccc2c1)CC1=C(O)C(=O)c2ccccc2C1=O: inactive

Next:
Please look up its inhibition: COc1cc(C(=O)NCC(C)(C)CC2=C(O)C(=O)c3ccccc3C2=O)c(O)c2ccccc12
inactive
